# Test system: HT29 colon
# experimental-protocol: NCI-60 one-dose screen, 48 h (100 = growth as untreated, 0 = no growth, -100 = all killed)
# run-conditions: 10 µM
Compounds without any hit were thinned out: in the full panel of roughly 83,000, 20% have a hit.
growth overview
assay-readout: growth (%)

{"columns": ["molecule", "readout-value"],
 "data": [
  ["COC(=O)C[C@](O)(CCCC(C)C)C(=O)O[C@H]1C(OC)=C[C@@]23CCCN2CCc2cc4c(cc2[C@@H]13)OCO4", -22.7],
  ["CC(=C\\C(=O)Oc1ccc2c3c1OC1C(O)CCC4(O)C(C2)N(CC2CCC2)CCC314)/C=C1\\CCCc2ccccc21 (centres undefined)", 8.3],
  ["C[C@H]1[C@H](OC(=O)CCC(=O)N(CCCc2cn(-c3ccc([N+](=O)[O-])cc3)nn2)CCNc2ccnc3cc(Cl)ccc23)O[C@@H]2OC3(C)CC[C@H]4[C@H](C)CC[C@@H]1[C@@]24OO3", -6.33],
  ["CCOP(=O)(CC(F)(F)C(F)(F)F)OCC", -44.6]
]}

* * *

# System: OVCAR-5 ovarian
# experimental-protocol: NCI-60 one-dose screen, 48 h (100 = growth as untreated, 0 = no growth, -100 = all killed)
# run-conditions: 10 µM
# Method: Growth inhibition of the OVCAR-5 human tumor cell line is measured as a screen for anti-cancer activity. Cells are grown in 96 well plates and exposed to the test compound for 48 hours. Compounds are tested at a single concentration, which is 10^-5 M for most compounds. The reported endpoint is percent growth (GI% or GIPRCNT), where numbers from 0 - 100% represent growth inhibition, and numbers from -100% - 0 represent cell death. For example, a value of 40 represents 60% growth inhibition. […]
Compounds without any hit were thinned out: in the full panel of roughly 83,000, 20% have a hit.
growth overview
assay-readout: growth (%)

{"columns": ["compound", "assay-readout", "uom", "readout-value"],
 "data": [
  ["CC1=C(C=O)C2=C(C)C3(CC3)[C@@](C)(O)C(=O)C2=C1", "growth", "%", 36.7],
  ["COP(=O)(CC(F)(F)C(F)(F)F)OC", "growth", "%", 68.9],
  ["N#C[Se]CC(=O)Nc1cccc(C(F)(F)F)c1", "growth", "%", -36.7],
  ["O=C(NC([Se])=NC1CCCCC1)c1ccccc1", "growth", "%", 62.2],
  ["CC[C@]12C=CCN3CC[C@@]4(c5ccc(OC)cc5N(C)[C@H]4[C@@](O)(C(=O)OC)[C@@H]1OC(=O)CCCC[P+](c1ccc(C)cc1)(c1ccc(C)cc1)c1ccc(C)cc1)[C@@H]32", "growth", "%", -96],
  ["COc1cc(OC)c(/C=C/C(=O)c2nc3ccccc3n2Cc2ccc(F)cc2)c(OC)c1", "growth", "%", 112],
  ["CCOP(=O)(OCC)C(NC(C)=O)C(=O)SCCN (stereo not given)", "growth", "%", 104],
  ["O=C(/C=C/c1ccc(F)cc1)c1nc2ccccc2n1Cc1ccc(F)cc1", "growth", "%", -7.92],
  ["COc1ccc(OC)c(/C=C/C(=O)c2nc3ccccc3n2Cc2ccc(F)cc2)c1", "growth", "%", -43],
  ["C=CC[Se]C(=O)c1ccc(C(=O)[Se]CC=C)s1", "growth", "%", -61.8],
  ["CC1=C2C(=C[C@@](C)(COP(=O)(Oc3ccccc3)Oc3ccccc3)[C@@H]2O)C(=O)[C@@](C)(O)C12CC2", "growth", "%", -64.5],
  ["CC1=C(CCC=NNC(N)=O)C2=C(C)C3(CC3)[C@@](C)(O)C(=O)C2=C1", "growth", "%", -35.8],
  ["Cc1ccc2[nH]c(=S)n(-c3ccc(F)cc3)c(=O)c2c1", "growth", "%", 106],
  ["CC[C@@]12CC(C(=O)OC)=C3Nc4cc5c(cc4[C@@]34CCN(C[C@H]3O[C@H]31)[C@@H]24)[C@@H]1[C@H](O5)[C@@H](O)[C@@]2(CC)CC(C(=O)OC)=C3Nc4cc(OC)ccc4[C@@]34CCN1[C@@H]24", "growth", "%", 34.3],
  ["CC[C@]12C=CCN3CC[C@@]4(c5ccc(OC)cc5N(C)[C@H]4[C@@](O)(C(=O)OC)[C@@H]1OC(=O)CCC[P+](C1CCCCC1)(C1CCCCC1)C1CCCCC1)[C@@H]32", "growth", "%", 11],
  ["O=C(NC([Se])=NC1CCCCC1)c1ccc2c(c1)OCO2", "growth", "%", 72],
  ["O=C(/C=C/c1cccc(Br)c1)c1nc2ccccc2n1Cc1ccc(Br)cc1", "growth", "%", -50.4],
  ["CC12OOC(C)(OO1)C2CCC(=O)NCCNc1ccnc2cc(Cl)ccc12 (stereo not given)", "growth", "%", 102],
  ["C[C@H]1[C@H](OC(=O)CCC(=O)N(CCCc2cn(-c3ccc(C#N)cc3)nn2)CCNc2ccnc3cc(Cl)ccc23)O[C@@H]2OC3(C)CC[C@H]4[C@H](C)CC[C@@H]1[C@@]24OO3", "growth", "%", 54.5],
  ["COCCOCCOCCOc1ccc(-n2cc(-c3ccc(O[C@H]4O[C@@H]5OC6(C)CC[C@H]7[C@H](C)CC[C@@H]([C@H]4C)[C@@]57OO6)cc3)nn2)cc1", "growth", "%", 72],
  ["CCOP(=O)(CC(F)(F)C(F)(F)F)OCC", "growth", "%", 50.7],
  ["O=C(/C=C/c1ccc(Cl)cc1)c1nc2ccccc2n1Cc1ccc(F)cc1", "growth", "%", 19.1],
  ["CN(C)CCc1cn(C2CCC2)c2cccc(O)c12", "growth", "%", 79.8],
  ["CC(C)N=C([Se])NC(=O)c1ccccc1", "growth", "%", -55.9],
  ["CC1=C(CCC=O)C2=C(C)C3(CC3)[C@@](C)(O)C(=O)C2=C1", "growth", "%", -95.8],
  ["O=C(/C=C/c1cccc(Br)c1)c1nc2ccccc2n1Cc1ccc(F)cc1", "growth", "%", 53.7],
  ["CC(=O)Oc1ccccc1C(=O)NC([Se])=NC1CCCCC1", "growth", "%", -30.3],
  ["O=C(/C=C/c1ccc(Br)cc1)c1nc2ccccc2n1Cc1ccc(Br)cc1", "growth", "%", -43.4],
  ["C[C@H]1[C@H](OC(=O)CCC(=O)Nc2cnccn2)O[C@@H]2OC3(C)CC[C@H]4[C@H](C)CC[C@@H]1[C@@]24OO3", "growth", "%", 35.2],
  ["C=CC[Se]C(=O)c1cncc(C(=O)[Se]CC=C)c1", "growth", "%", -86.6],
  ["C[C@H]1[C@H](OC(=O)CCC(=O)N(CCCc2cn(-c3ccc(CN4CCOCC4)cc3)nn2)CCNc2ccnc3cc(Cl)ccc23)O[C@@H]2OC3(C)CC[C@H]4[C@H](C)CC[C@@H]1[C@@]24OO3", "growth", "%", 42.1],
  ["COC(=O)C[C@](O)(CCC(C)C)C(=O)O[C@H]1C(OC)=C[C@@]23CCCN2CCc2cc4c(cc2[C@@H]13)OCO4", "growth", "%", -20.4],
  ["COC(=O)C[C@](O)(CCC(C)C)C(=O)O[C@@H]1C(OC)=C[C@]23CCCN2CCc2cc4c(cc2[C@H]13)OCO4", "growth", "%", -35.9],
  ["COc1ccc2cc([C@H](C)C(=O)[Se]CCC#N)ccc2c1", "growth", "%", -31.8],
  ["COC(=O)CCn1c(-c2ccc(-n3cc(-c4ccc(O[C@H]5O[C@@H]6OC7(C)CC[C@H]8[C@H](C)CC[C@@H]([C@H]5C)[C@@]68OO7)cc4)nn3)cc2)nc2ccccc21", "growth", "%", 36.6]
]}

Source listed as PubChem BioAssay (NCI).
